studyTarget: factor B (Homo sapiens, UniProt P00751)
assayOverview: assay of Biological Example 2.7
Assay type: binding
Set-up: made in house; host or cells: drosophila cells
experimentalContext: assay of Biological Example 2.7 (Table 2)
Sequence (P00751 26-764): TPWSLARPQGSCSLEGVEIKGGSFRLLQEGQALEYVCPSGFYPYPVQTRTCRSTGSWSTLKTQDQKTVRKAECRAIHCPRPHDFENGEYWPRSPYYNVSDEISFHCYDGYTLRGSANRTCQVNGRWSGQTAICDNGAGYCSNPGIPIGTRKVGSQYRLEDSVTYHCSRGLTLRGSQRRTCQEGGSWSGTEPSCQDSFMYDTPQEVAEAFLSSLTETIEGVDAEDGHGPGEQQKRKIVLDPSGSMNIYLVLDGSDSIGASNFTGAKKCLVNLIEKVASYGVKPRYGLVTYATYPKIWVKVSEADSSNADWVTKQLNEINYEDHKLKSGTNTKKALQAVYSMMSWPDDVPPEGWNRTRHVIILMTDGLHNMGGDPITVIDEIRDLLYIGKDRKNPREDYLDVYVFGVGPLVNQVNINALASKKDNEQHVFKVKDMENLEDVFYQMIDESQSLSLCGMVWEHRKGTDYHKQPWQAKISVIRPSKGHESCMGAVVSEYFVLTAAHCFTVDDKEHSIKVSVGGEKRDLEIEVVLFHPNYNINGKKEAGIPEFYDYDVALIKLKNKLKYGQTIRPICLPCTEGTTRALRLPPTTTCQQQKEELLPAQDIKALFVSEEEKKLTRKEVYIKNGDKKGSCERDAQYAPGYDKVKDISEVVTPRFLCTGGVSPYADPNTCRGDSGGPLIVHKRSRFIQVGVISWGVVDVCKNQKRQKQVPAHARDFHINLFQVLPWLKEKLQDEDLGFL
readout: IC50 (µM)
Your answer is read as µM, so omit the unit and give the number.

Identify measured IC50 associated with COc1cc(C)c2[nH]ccc2c1C(C)(N)c1nc2cc(C#N)ccc2[nH]1 (single isomer, unassigned; (-)) [41-B b) (−)]
0.01

Identify measured IC50 associated with CNC(C)(c1nc2cc(C#N)ccc2o1)c1c(OC)cc(C)c2[nH]ccc12 (single isomer, unassigned)
0.37

Identify measured IC50 associated with CCOC(=O)C(C)(c1nc2cc(C#N)ccc2o1)c1c(OC)cc(C)c2[nH]ccc12 (racemic)
7.95

---

studyTarget: factor B (Homo sapiens)
assayOverview: assay of Biological Example 2.7
Assay type: binding
Design: made in house; host or cells: drosophila cells
experimentalContext: assay of Biological Example 2.7 (Table 2)
readout: pIC50
Bear in mind: pIC50 is minus log10 of a mol/L concentration; give just that figure.

Identify measured pIC50 associated with [2H]C([2H])([2H])OC(C)(c1nc2cc(C#N)ccc2[nH]1)c1c(OC)cc(C)c2[nH]ccc12 (single isomer, unassigned; (+)) [137-I b) (+)]
6.96

Identify measured pIC50 associated with COc1cc(C)c2[nH]ccc2c1C(CC(C)CO)c1nc2cc(C#N)ccc2[nH]1 (racemic)
7.04

Identify measured pIC50 associated with Cc1cc(Br)c(C(C)(N)c2nc3cc(C#N)ccc3[nH]2)c2cc[nH]c12 (single isomer, unassigned; (+)) [137-A b) (+)]
6.92

---

studyTarget: factor B (Homo sapiens)
assayOverview: factor B inhibition assay of Biological Example 1
Type: biochemical
Parameters: CVF-Bb complex prepared from purified cobra venom factor (1 μM), recombinant human complement factor B; made in house; host or cells: drosophila cells (factor B); E. coli (factor D used to form the complex)
experimentalContext: IC50 (nM), assay of Biological Example 1 (Table 1)
Sequence (P00751 260-764 limits assumed): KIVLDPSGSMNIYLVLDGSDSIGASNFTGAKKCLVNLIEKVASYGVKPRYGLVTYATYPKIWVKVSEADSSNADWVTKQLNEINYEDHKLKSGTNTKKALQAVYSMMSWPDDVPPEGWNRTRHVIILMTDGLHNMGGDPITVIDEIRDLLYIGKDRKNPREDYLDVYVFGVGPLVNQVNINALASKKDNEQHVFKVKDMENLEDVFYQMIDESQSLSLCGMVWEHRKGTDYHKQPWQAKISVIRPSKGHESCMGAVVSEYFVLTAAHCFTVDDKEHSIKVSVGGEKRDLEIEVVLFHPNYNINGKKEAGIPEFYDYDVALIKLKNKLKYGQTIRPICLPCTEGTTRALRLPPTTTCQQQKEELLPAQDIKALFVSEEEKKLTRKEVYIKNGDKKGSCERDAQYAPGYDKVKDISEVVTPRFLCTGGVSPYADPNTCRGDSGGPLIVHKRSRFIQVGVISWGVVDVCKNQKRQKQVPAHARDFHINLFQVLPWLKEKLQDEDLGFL
Sequence (Q91132 23-649 partner limits assumed): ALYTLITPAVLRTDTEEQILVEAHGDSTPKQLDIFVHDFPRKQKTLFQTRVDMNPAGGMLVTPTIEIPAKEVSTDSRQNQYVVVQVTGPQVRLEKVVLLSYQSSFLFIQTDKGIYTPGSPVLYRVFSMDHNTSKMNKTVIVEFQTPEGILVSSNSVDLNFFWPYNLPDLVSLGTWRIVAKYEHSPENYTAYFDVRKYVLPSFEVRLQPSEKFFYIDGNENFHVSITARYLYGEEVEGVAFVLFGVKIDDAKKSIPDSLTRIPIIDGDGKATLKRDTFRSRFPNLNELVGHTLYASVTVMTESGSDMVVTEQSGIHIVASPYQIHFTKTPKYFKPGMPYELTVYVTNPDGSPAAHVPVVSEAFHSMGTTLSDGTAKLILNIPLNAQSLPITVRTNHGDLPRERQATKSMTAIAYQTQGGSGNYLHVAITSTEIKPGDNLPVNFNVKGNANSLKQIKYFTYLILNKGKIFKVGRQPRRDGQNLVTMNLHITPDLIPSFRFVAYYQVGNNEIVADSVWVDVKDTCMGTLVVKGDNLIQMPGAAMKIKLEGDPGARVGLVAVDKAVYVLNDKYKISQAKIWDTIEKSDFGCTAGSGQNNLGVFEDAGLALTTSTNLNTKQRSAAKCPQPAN
Sequence (Q91132 733-984 partner limits assumed): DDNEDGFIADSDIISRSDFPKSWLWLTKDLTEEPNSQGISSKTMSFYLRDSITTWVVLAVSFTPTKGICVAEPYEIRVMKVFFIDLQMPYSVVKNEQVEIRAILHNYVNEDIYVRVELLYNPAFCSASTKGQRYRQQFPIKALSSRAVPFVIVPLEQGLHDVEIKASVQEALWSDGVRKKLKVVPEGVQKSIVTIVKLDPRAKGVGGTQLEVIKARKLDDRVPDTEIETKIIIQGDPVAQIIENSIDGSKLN
Sequence (Q91132 1264-1642 partner limits assumed): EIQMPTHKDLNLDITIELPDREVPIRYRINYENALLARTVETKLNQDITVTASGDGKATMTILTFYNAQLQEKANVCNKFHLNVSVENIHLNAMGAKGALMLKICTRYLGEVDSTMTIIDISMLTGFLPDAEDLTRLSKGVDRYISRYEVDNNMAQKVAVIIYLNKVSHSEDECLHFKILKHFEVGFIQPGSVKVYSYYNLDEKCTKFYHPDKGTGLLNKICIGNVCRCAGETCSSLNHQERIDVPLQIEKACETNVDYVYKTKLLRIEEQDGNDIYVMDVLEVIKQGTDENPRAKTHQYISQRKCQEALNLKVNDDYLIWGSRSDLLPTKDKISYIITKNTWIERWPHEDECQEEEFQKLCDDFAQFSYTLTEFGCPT
readout: log10(IC50) (log10 of the value in nM)
Form field - Quantity: IC50; Unit: nM; Scale: log10

Identify measured log10(IC50) associated with Cc1cc(C)c2[nH]ccc2c1C(C)(O)c1nc2cc(C#N)ccc2[nH]1 (single isomer, unassigned; (+)) [76-B b) (+)]
2.46

Identify measured log10(IC50) associated with CCc1cc(C)c2[nH]cc(C(F)(F)F)c2c1C(C)(O)c1nc2cc(C#N)ccc2[nH]1 (single isomer, unassigned; (+))
4.76

Identify measured log10(IC50) associated with Cc1cc(S(C)(=O)=O)c(C(N)c2nc3cc(C#N)ccc3[nH]2)c2cc[nH]c12 (single isomer, unassigned) [18-D (+)]
3.09

Identify measured log10(IC50) associated with COC(C)(c1nc2cc(C#N)ccc2[nH]1)c1c(OC(F)F)cc(C)c2[nH]ccc12 (single isomer, unassigned; (-)) [8-B b) (−)]
2.95

Identify measured log10(IC50) associated with CNC(c1nc2cc(C#N)ccc2[nH]1)(c1c(C2CC2)cc(C)c2[nH]ccc12)C(F)(F)F (single isomer, unassigned; (+)) [107-E b) (+)]
2.38

Identify measured log10(IC50) associated with CCc1cc(C)c2[nH]cc(-c3ccn[nH]3)c2c1Cc1nc2cc(C#N)ccc2[nH]1
2.28

Identify measured log10(IC50) associated with COc1cc(C)c2[nH]ccc2c1C(O)c1cc2cc(C#N)ccc2[nH]1 (racemic)
1.30

Identify measured log10(IC50) associated with Cc1cc(C)c2[nH]ccc2c1C(C)c1nc2cc(C#N)ccc2[nH]1 (racemic)
2.67

Identify measured log10(IC50) associated with COc1cc(C)c2[nH]ccc2c1C(OC)c1nc2cc(C#N)ccc2[nH]1 (racemic) [30-B b) (+)]
2.34

Identify measured log10(IC50) associated with COc1cc(F)c2[nH]ccc2c1Cc1nc2cc(C#N)ccc2[nH]1
3.50

Identify measured log10(IC50) associated with Cc1cc(OC(C)C)c(C(N)c2nc3cc(C#N)ccc3[nH]2)c2cc[nH]c12 (racemic)
1.70

Identify measured log10(IC50) associated with COc1cc(C)c2[nH]ccc2c1C(N)(c1nc2cc(C#N)ccc2[nH]1)C(F)(F)F (racemic) [36-E b) (+)]
1.70

Identify measured log10(IC50) associated with Cc1cc(OC(F)F)c(C(O)c2nc3cc(C#N)ccc3[nH]2)c2cc[nH]c12 (single isomer, unassigned; (-)) [3-B b) (−)]
2.40

Identify measured log10(IC50) associated with Cc1cc(S(C)(=O)=O)c(C(N)(c2nc3cc(C#N)ccc3[nH]2)C(F)(F)F)c2cc[nH]c12 (single isomer, unassigned; (+)) [17-B b) (+)]
3.84

Identify measured log10(IC50) associated with CCc1cc(C)c2[nH]ccc2c1C(C)(OC)c1nc2cc(C#N)ccc2[nH]1 (single isomer, unassigned; (-)) [84-C b) (−)]
1.00

Identify measured log10(IC50) associated with COc1cc(C)c2[nH]cc(Cl)c2c1C(C)(O)c1nc2cc(C#N)ccc2[nH]1 (single isomer, unassigned) [Example 29-A]
3.31

Identify measured log10(IC50) associated with CCc1cc(C)c2[nH]ccc2c1C(N)c1nc2cc(C#N)ccc2[nH]1 (single isomer, unassigned; (-)) [96-C b) (−)]
1.85

Identify measured log10(IC50) associated with COCCOc1cc(C)c2[nH]ccc2c1Cc1nc2cc(C#N)ccc2[nH]1
3.75

Identify measured log10(IC50) associated with Cc1cc(OC(F)F)c(C(NCCN)c2nc3cc(C#N)ccc3[nH]2)c2cc[nH]c12 (racemic)
3.43

Identify measured log10(IC50) associated with CNC(=O)c1cc(C)c2[nH]ccc2c1C(O)(c1nc2cc(C#N)ccc2[nH]1)C(F)(F)F (racemic)
4.86

Identify measured log10(IC50) associated with CNC(c1nc2cc(C#N)ccc2[nH]1)(c1c(C2CC2)cc(C)c2[nH]ccc12)C(F)(F)F (single isomer, unassigned; (-)) [107-E b) (−)]
0.48

Identify measured log10(IC50) associated with COCc1cc(C)c2[nH]ccc2c1Cc1nc2cc(C#N)ccc2[nH]1
3.04

Identify measured log10(IC50) associated with Cc1cc(Cl)c(Cc2nc3cc(C#N)ccc3[nH]2)c2cc[nH]c12
2.41

Identify measured log10(IC50) associated with Cc1cc(S(C)(=O)=O)c(C(N)(c2nc3cc(C#N)ccc3[nH]2)C(F)(F)F)c2cc[nH]c12 (single isomer, unassigned; (-)) [17-B b) (−)]
3.12
